- Experiment description: qHTS for differential inhibitors of proliferation of Plasmodium falciparum line Dd2 (AID 1882);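 note: compound exposure of 72 h on infected erythrocytes; plate controls were DMSO vehicle for no effect and 0.29 µM artemisinin for full effect; nearly all actives have a fitted effect of over 65% in size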
- Measurement parameters: Plasmodium falciparum Dd2 proliferation inhibition; series mostly up to 28.7 µM
Records with an inconclusive call do not appear. Calls of active or inactive are those of the source. Calls come from the whole dose curve; as a rule, active = well fitted inhibition curve with a large enough effect; inconclusive = small, poorly fitted or top-dose-only effect; inactive = flat fitted curve, though single readings scatter.
Answer with one of the outcomes given here: active, inactive

Use these answered entries as a reference point.
Write down the call the test reported for this molecule. Item: "O=C(O)c1ccccc1Nc1cccc(OCc2ccc3ccccc3n2)c1"
inactive

Hi, sorry to bother you, what did the test record for "C/C(=C\c1ccc(C(=O)O)cc1)c1ccc2c(c1)C(C)(C)CCC2(C)C" ?
inactive

Recorded call for "COc1cc(N)c(Cl)cc1C(=O)OCCN1CCCCC1" ?
inactive

Dear colleague, could you share the recorded outcome for NC1CCN(O)C1=O (configuration not stated) when you have a moment?
inactive

Hello, I am checking results. What call was entered for COC(=O)C(N)Cc1ccc(Cl)cc1 (configuration not stated) ?
inactive

---
Dear colleague, could you share the recorded outcome for NCC(O)c1ccc(O)c(O)c1 (configuration not stated) when you have a moment?
inactive

Test call, this molecule: "C[C@@H](NCCc1ccc(O)cc1)[C@@H](O)c1ccc(O)cc1"
inactive

Recorded call for "[N-]=[N+]=Nc1ccc(C(=O)CSC[C@H](NC(=O)CC[C@H](N)C(=O)O)C(=O)NCC(=O)O)cc1" ?
inactive

Per the records of this test, what outcome belongs to NCC(O)(CS(=O)(=O)O)c1ccc(Cl)cc1 (configuration not stated) ?
inactive

I would be grateful if you could indicate the recorded call for "NS(=O)(=O)c1cccc2c1c([N+](=O)[O-])cc1nc(O)c(O)nc12" .
inactive

====

- Experiment description: HTS Assay for Allosteric Antagonists of the Human D2 Dopamine Receptor: Hit Validation in HTRF (AID 624455);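 note: stable D1 dopamine receptor cell line scored for blocking the D1 response; % is set by controls: 0 for no effect and ±100 for the full control effect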
- Measurement parameters: Cells stably expressing D1 dopamine receptor, inhibition mode; series mostly up to 46.1 µM
Records with an inconclusive call do not appear. Active and inactive are the calls of the source. The call rests on the fitted dose curve; in most records, active means well fitted inhibition curve with a large enough effect; inconclusive means small, poorly fitted or top-dose-only effect; inactive means no such curve, though single readings can be large or run the other way.
Readout kind: outcome

Reference set, count: 5
Record summary for "NC1(C(=O)O)CCCCC1" : reported outcome = inactive

Given item "c1ccc(C(NCc2cccnc2)(c2ccccc2)c2ccccc2)cc1" , the value recorded as its outcome is inactive

Record summary for "CSC(=N)N" : reported outcome = inactive

Entry under test: "CCCCCCCCCCC/C=C\C(C)(C)/C=C\CCCC(=O)O" . Its outcome was inactive

# compound "CC1=C(/C=C/C(C)=C/C=C/C(C)=C\C(=O)O)C(C)(C)CCC1" ; its outcome = inactive

Next:
Measured outcome, "O=c1ccc2c(OCCCCc3ccccc3)c3ccoc3cc2o1" : inactive

Sure, the documented outcome for "COc1ccc(C(=O)NCc2cccnc2)cc1C(=O)NCc1cccnc1" is inactive

====

- Experiment description: Cytometry Cell-Based qHTS for Inhibitors of the mTORC1 Signaling Pathway in MEF cells (AID 2668);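 note: Tsc2-/- p53-/- mouse embryonic fibroblasts stably re-expressing wild-type Tsc2; percent cells positive for phospho-rpS6 Ser235/236 relative to propidium iodide stain; plate controls were DMSO wells for no effect and 7.5 nM rapamycin control wells for full effect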
- Measurement parameters: mTORC1 pathway readout; series mostly up to 38.3 µM
Results filed as inconclusive are left out. Active and inactive are the calls of the source. Calls follow the shape of the dose curve; as a rule, active = well fitted inhibition curve with a large enough effect; inconclusive = small, poorly fitted or top-dose-only effect; inactive = flat fitted curve, though single readings scatter.
Choose one outcome from this list and give only that: 1 (active), -1 (inactive)

I'd appreciate the recorded outcome for Cc1nc2n(c(=O)c1CCN1CCC(c3noc4cc(F)ccc34)CC1)CCCC2O (configuration not stated) from this test.
-1

Tell me the recorded outcome of this test for CN1CC(O)C(O)C(O)C1CO (configuration not stated) .
-1

Name the outcome recorded for COC(=O)C(N)Cc1ccc(Cl)cc1 (configuration not stated) in the assay.
-1

Give the logged outcome of this assay for the following compound: "CC(=O)/C(C)=N/O"
-1

Which outcome was entered for the compound C=C1C[C@@]23CC[C@H]4[C@@](C)(CCC[C@@]4(C)C(=O)OC4OC(CO)C(O)C(O)C4O)[C@@H]2CC[C@]1(OC1OC(CO)C(O)C(O)C1OC1OC(CO)C(O)C(O)C1O)C3 (some centres not stated) in this test?
-1

Others:
# outcome recorded in this test, key = "Cc1ccc2c(c1)C(N1CCN(C)CC1)=Nc1cccnc1N2"
-1

Write down the call the test reported for this compound. Item: "O=C(O)Cc1ccc(O)c(O)c1"
-1

Short answer needed: outcome of this test for "C#CCn1c(=O)c2c(ncn2C)n(C)c1=O" ?
-1

// return assay outcome for "CN(CC[C@@H](Oc1ccc(C(F)(F)F)cc1)c1ccccc1)CC(=O)O"
-1

What is the recorded call for this compound in the test? "N=C(N)c1ccccc1"
-1

Query: recorded result category for "Nc1ccc(-c2ccc3ccccc3n2)cc1" in this test
-1

Which outcome was assigned to "CCCCCCCCCCC(C)(C)C(=O)Nc1c(OC)cc(OC)cc1OC" in this test?
-1

====

- System under test: RecQ-like DNA helicase BLM (Homo sapiens)
- Experiment description: qHTS Validation Assay for Inhibitors of Bloom's syndrome helicase (BLM) (AID 2364)
- Measurement parameters: BLM helicase DNA unwinding, fluorescence, in vitro; series mostly up to 57.1 µM
Results filed as inconclusive are left out. Active and inactive are the calls of the source. Calls follow the shape of the dose curve; as a rule, active = well fitted inhibition curve with a large enough effect; inconclusive = small, poorly fitted or top-dose-only effect; inactive = no such curve, though single readings can be large or run the other way.
Pick one and only one: active, inactive

Reference set, count: 10
Hi team, can someone confirm the assay call for "CCN(CC)CCCCCCCCOC(=O)c1cc(OC)c(OC)c(OC)c1" ?
inactive

Which outcome was assigned to "c1ccc2nc(C3=NCCN3)ccc2c1" in this test?
inactive

What did the test return for CC(=O)O[C@H]1CC2(C)[C@@H](C[C@@H](O)[C@H]3[C@@]4(C)CC[C@@H](O)[C@@H](C)[C@@H]4CC[C@@]32C)C1=C(CCC=C(C)C)C(=O)O (some centres undefined) ?
inactive

Outcome logged for "COc1cc(/C=C(\C#N)C(=O)c2ccc(O)c(O)c2)cc(I)c1O" in this assay:
active

Returns: the outcome recorded for "Clc1nccc2c1ccc1ccccc12" in this assay.
inactive

Please let me know the test result on file for Cn1cc(C(F)(F)F)nc1-c1ccc(OCC(O)CNCCOc2ccc(O)c(C(N)=O)c2)cc1 (centres undefined) .
inactive

Dear all, I need the recorded test outcome for "O=c1onc2cnc3ccccc3n12" , thank you.
inactive

I would be grateful if you could indicate the recorded call for "CCN(CC)CCOC(=O)c1cc(Cl)c(N)cc1OC" .
inactive

Write down the call the test reported for this compound. Item: O=C(O)C1CCCNC1 (centres undefined)
inactive

For this compound, state the assay outcome: "O=S(=O)(c1cccc2c(Cl)cccc12)N1CCCNCC1"
inactive

Next:
What did this assay record as the result for "C[C@@H](NCCc1ccc(O)cc1)[C@@H](O)c1ccc(O)cc1" ?
inactive

Returns: the outcome recorded for "COc1cc2c(CCNC(C)=O)c[nH]c2cc1O" in this assay.
inactive

====

- System under test: ATPase family AAA domain-containing protein 5 (Homo sapiens)
- Experiment description: Validation screen for small molecules that inhibit ELG1-dependent DNA repair in human embryonic kidney (HEK293T) cells expressing luciferase-tagged ELG1 (AID 493107); note: nearly all actives have a fitted effect of over 70% in size
- Measurement parameters: HEK293T ELG1-luciferase level, luminescence, 5-fluorouridine co-treatment, 16 h; series mostly up to 46.1 µM
Records with an inconclusive call do not appear. Calls of active or inactive are those of the source. Calls follow the shape of the dose curve; as a rule, active = well fitted inhibition curve with a large enough effect; inconclusive = small, poorly fitted or top-dose-only effect, or effect the other way; inactive = flat fitted curve, though single readings scatter.
Outcome (select one): active, inactive

GET /call?item= CC1CCN=C(N)S1 (stereo unspecified) returns the recorded outcome of this test.
inactive

More entries:
Hello, I am checking results. What call was entered for "CN(C)C(=O)/N=N/C(=O)N(C)C" ?
inactive

Per the records of this test, what outcome belongs to "O=C(O)c1cccnc1C(=O)O" ?
inactive

So what was the verdict on "CCCOC(=O)c1c(-c2ccccc2)nc(CC)c(C(=O)SCC)c1CCC" in this test?
inactive

Recorded call for "O=c1[nH]c2cc(Cl)ccc2c(O)c1-c1ccc(Oc2ccccc2)cc1" ?
inactive

Short answer needed: outcome of this test for "CCCCOC(=O)NS(=O)(=O)c1sc(CC(C)C)cc1-c1ccc(Cn2c(CC)nc3c(C)cc(C)nc32)cc1" ?
active

====

- Experiment description: Stat Signaling Pathway (AID 446);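 note: ME-180 cervical cancer cells given 40 pM IL-6 alongside compound; SIE-controlled beta-lactamase reporter measured as 460/530 nm FRET emission ratio; % is set by controls: 0 for no effect and ±100 for the full control effect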
- Measurement parameters: ME-180 (cervical carcinoma) SIE beta-lactamase reporter, IL-6 stimulated, 5 h; at 38 µM (top of the series) unless noted
Records with an inconclusive call do not appear. Calls of active or inactive are those of the source. Calls follow the shape of the dose curve; as a rule, active = well fitted curve in either direction with a large enough effect (not every such curve was filed as active); inconclusive = small, poorly fitted or top-dose-only effect, or another doubt; inactive = flat fitted curve, though single readings scatter.
Readout kind: activity, negative = inhibition

# example entries with known answers
The recorded activity, negative = inhibition for entry "Fc1ccc(CN(C2=NCCN2)c2c(Cl)cccc2Cl)cc1" equals -4.64% (inactive)

Recorded activity, negative = inhibition (compound "CC(=O)C(C)=O" ): 31.9% (inactive)

// field: activity, negative = inhibition; key: "O=C(O)/C=C/c1ccc(O)c(O)c1" ; value = -8.31% [at 17.2 µM] (inactive)

The compound "CNc1cc(NS(=O)(=O)c2ccc(N)cc2)nc(NC)n1" showed activity, negative = inhibition equal to 13.2% (inactive)

Continuing:
The recorded activity, negative = inhibition for entry "COc1ccccc1N1CCN(CCCNc2c(C)c(=O)n(C)c(=O)n2C)CC1" equals 0.762% (inactive)

Kindly note the recorded activity, negative = inhibition for "O=C(O)c1cc2cc(F)ccc2[nH]1" , which is -0.809% [at 17.2 µM] (inactive)

Summary for this compound, "O=c1ccc2c(OCCCCc3ccccc3)c3ccoc3cc2o1" : activity, negative = inhibition is 3.59% (inactive)

Record summary for "NCCCCN" : reported activity, negative = inhibition = -10.8% (inactive)
